Catalogue of melting point values

get_value(item= CC(C)n1nc(-c2c(-c3ccccc3)nn3ccc(NS(C)(=O)=O)cc23)ccc1=O , readout=melting point) returns 193 to 194 °C

get_value(item= CC(C)n1nc(-c2c(-c3ccccc3)nn3ccc(N4CCOCC4)cc23)ccc1=O , readout=melting point) returns 182 to 187 °C

get_value(item= CC(C)Oc1ccn2nc(-c3ccccc3)c(-c3ccc(=O)n(C(C)C)n3)c2c1 , readout=melting point) returns 162 to 163 °C

get_value(item= CCCCNC(=O)COc1ccn2nc(-c3ccccc3)c(-c3ccc(=O)n(C(C)C)n3)c2c1 , readout=melting point) returns 151 to 152 °C

get_value(item= CC(C)n1nc(-c2c(-c3ccccc3)nn3ccc(OCc4ccccn4)cc23)ccc1=O , readout=melting point) returns 150 to 151 °C
